The reported measurements were obtained from paper PMC11928621.

Biological target: UniProt:Q7Z3F1
Sequence (Q7Z3F1 1-870): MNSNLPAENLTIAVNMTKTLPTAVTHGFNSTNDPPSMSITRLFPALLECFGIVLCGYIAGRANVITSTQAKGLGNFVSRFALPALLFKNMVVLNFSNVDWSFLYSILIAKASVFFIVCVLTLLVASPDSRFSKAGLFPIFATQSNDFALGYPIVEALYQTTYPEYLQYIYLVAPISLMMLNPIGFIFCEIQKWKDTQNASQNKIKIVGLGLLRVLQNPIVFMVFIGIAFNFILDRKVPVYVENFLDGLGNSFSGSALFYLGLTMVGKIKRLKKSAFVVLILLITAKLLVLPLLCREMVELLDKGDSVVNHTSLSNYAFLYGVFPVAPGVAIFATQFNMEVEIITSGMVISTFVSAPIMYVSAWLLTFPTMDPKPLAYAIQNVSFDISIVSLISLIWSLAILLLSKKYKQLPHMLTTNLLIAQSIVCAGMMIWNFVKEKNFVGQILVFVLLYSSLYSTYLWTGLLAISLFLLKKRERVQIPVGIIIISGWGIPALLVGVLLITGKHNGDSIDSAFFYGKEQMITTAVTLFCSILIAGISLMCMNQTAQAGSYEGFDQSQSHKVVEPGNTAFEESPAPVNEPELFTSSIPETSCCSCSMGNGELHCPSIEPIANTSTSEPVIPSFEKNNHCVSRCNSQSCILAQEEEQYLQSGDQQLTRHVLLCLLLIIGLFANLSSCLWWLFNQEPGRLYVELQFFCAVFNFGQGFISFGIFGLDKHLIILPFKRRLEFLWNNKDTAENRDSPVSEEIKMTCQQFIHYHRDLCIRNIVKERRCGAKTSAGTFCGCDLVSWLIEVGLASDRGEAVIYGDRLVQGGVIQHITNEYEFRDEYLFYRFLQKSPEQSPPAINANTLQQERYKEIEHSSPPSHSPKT
Assay: SPR Kd and cryo-EM structure of the complex
Counter-ions that a name gives are not always drawn.
assay-metric: Kd

INPUT: I am curious: what Kd value has been reported for O=S(=O)(O)Oc1c[nH]c2ccccc12 [IS, indoxyl sulfate] ?
OUTPUT: ~150 µM
